Parameter 'readout' = pIC50; parameter 'system' = UniProtKB O00329.
pIC50: −log10 of the molar value.
Measurement Name: pIC50

* Cc1nn(C(C)c2cc(Cl)c(F)c3c2OC[C@H](C)N(S(C)(=O)=O)C3)c2ncnc(N)c12 (single isomer, unassigned) | ≥ 7.00
* Cc1nn(C(C)c2cc(Cl)c(C#N)c3c2OC(C)CN(C2CN(C(=O)NC(C)C)C2)C3)c2ncnc(N)c12 (single isomer, unassigned) | ≥ 7.00
* CCC(=O)N1CC(N2Cc3c(C#N)c(Cl)cc(C(C)n4nc(C)c5c(N)ncnc54)c3OC(C)C2)C1 (single isomer, unassigned) | ≥ 7.00
* CC(=O)N1CC(N2Cc3c(F)c(Cl)cc(C(C)n4nc(C)c5c(N)ncnc54)c3OC(C)C2=O)C1 (single isomer, unassigned) | 6.30 to 7.00
* Cc1nn(C(C)c2cc(Cl)c(C#N)c3c2OC(C)CN(CC#N)C3)c2ncnc(N)c12 (single isomer, unassigned) [Example 107] | ≥ 7.00
* CCOC(=O)N1CC(N2Cc3c(C#N)c(Cl)cc(C(C)n4nc(C)c5c(N)ncnc54)c3OC(C)C2)C1 (single isomer, unassigned) [Example 99] | ≥ 7.00

###

Parameter 'readout' = IC50; parameter 'system' = PI3Kδ (Homo sapiens (Human), UniProt O00329).
Sequence (O00329 whole entry): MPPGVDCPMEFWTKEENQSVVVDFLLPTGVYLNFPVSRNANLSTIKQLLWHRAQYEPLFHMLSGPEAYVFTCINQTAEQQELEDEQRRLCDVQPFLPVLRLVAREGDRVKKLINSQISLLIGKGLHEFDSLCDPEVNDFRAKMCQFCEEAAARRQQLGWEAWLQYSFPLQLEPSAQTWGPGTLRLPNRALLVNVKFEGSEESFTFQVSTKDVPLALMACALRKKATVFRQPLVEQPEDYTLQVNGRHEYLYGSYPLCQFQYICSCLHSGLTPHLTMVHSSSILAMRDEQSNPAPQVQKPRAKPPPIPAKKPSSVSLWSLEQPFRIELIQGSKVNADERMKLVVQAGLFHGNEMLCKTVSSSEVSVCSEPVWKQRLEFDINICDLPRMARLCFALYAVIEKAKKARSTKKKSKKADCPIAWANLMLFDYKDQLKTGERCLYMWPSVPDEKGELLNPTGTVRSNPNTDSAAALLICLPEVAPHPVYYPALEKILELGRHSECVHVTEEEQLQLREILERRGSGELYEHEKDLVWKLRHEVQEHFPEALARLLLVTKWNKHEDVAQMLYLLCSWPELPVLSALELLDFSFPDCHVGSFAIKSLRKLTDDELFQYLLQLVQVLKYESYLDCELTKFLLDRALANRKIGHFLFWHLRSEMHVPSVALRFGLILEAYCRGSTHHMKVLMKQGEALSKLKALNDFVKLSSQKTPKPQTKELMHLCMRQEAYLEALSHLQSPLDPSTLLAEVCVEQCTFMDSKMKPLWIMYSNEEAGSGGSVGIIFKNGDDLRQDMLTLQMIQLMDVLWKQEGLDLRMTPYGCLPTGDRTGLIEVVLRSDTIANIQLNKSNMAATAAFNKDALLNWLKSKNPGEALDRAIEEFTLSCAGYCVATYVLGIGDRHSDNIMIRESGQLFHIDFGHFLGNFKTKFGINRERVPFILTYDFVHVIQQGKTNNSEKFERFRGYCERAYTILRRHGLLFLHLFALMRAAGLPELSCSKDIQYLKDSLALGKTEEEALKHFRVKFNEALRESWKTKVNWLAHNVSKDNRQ
Sequence (P27986 whole entry partner): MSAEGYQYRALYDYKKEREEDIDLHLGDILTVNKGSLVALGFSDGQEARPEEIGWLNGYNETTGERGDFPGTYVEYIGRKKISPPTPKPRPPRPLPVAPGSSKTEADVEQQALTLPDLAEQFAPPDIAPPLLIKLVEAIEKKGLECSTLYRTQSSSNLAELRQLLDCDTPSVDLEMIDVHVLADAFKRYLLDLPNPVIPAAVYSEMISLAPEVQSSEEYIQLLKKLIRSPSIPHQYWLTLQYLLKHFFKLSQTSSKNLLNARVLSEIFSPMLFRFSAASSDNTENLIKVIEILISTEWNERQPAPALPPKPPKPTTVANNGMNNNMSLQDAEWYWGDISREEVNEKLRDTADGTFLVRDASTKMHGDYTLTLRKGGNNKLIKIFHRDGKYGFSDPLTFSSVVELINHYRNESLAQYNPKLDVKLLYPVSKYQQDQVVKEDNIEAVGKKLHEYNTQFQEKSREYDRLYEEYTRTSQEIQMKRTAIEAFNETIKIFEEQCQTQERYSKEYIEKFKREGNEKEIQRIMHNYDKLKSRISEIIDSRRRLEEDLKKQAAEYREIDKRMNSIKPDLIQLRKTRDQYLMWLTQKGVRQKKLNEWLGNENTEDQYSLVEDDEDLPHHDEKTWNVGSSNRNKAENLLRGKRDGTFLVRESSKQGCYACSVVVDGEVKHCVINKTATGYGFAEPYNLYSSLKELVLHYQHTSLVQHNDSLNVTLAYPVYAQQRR
Structures can show the parent of a compound that is named as a salt.
Measurement Name: IC50

• Cc1nn(C(C)c2cc(Cl)c(C#N)c3c2OC(C)CN(C2CN(S(=O)(=O)N(C)C)C2)C3)c2ncnc(N)c12 (single isomer, unassigned) [Example 106] = ≤ 100 nM
• CCC1CN(CCO)Cc2c(C#N)c(Cl)cc(C(C)n3nc(C)c4c(N)ncnc43)c2O1 (single isomer, unassigned) [Example 69] = ≤ 100 nM
• Cc1nn(C(C)c2cc(Cl)c(F)c3c2O[C@@H](C)CN(C2CC(C(=O)O)C2)C3)c2ncnc(N)c12 (stereo partly drawn) [Example 41, trifluoroacetate] = ≤ 100 nM

###

Parameter 'readout' = IC50; parameter 'system' = UniProtKB O00329.
Measurement Name: IC50

- CC(=O)N1CC(N2Cc3c(F)c(Cl)cc(C(C)n4nc(C)c5c(N)ncnc54)c3OC(C)C2)C1 (single isomer, unassigned): > 0.8 µM
- Cc1nn(C(C)c2cc(Cl)c(C#N)c3c2OC(C)CN(CCO)C3)c2ncnc(N)c12 (single isomer, unassigned) [Example 64]: 0.1 to 0.5 µM
- Cc1nn(C(C)c2cc(Cl)c(F)c3c2OC(C)CN(S(C)(=O)=O)C3)c2ncnc(N)c12 (single isomer, unassigned) [Example 37]: ≤ 0.1 µM
- Cc1nn(C(C)c2cc(Cl)c(F)c3c2OC(C)CN(C2CN(C(N)=O)C2)C3)c2ncnc(N)c12 (single isomer, unassigned): ≤ 0.1 µM
- Cc1nn(C(C)c2cc(Cl)c(C#N)c3c2OC(C)CN(CCO)C3)c2ncnc(N)c12 (single isomer, unassigned) [Example 63]: ≤ 0.1 µM
- Cc1nn(C(C)c2cc(Cl)c(C#N)c3c2OC(C)CN(CC#N)C3)c2ncnc(N)c12 (single isomer, unassigned) [Example 108]: ≤ 0.1 µM
- CC(=O)N1CC(N2Cc3c(C#N)c(Cl)cc(C(C)n4nc(C)c5c(N)ncnc54)c3OC(C)C2)C1 (single isomer, unassigned) [Example 48]: 0.1 to 0.5 µM
- CCOC(=O)N1CC(N2Cc3c(C#N)c(Cl)cc(C(C)n4nc(C)c5c(N)ncnc54)c3OC(C)C2)C1 (single isomer, unassigned) [Example 100]: ≤ 0.1 µM
- Cc1nn(C(C)c2cc(Cl)c(C#N)c3c2OC(C)CN(CC(N)=O)C3)c2ncnc(N)c12 (single isomer, unassigned): ≤ 0.1 µM
- Cc1nn(C(C)c2cc(Cl)c(F)c3c2OC(C)CN(C2CN(C(=O)OC(C)(C)C)C2)C3)c2ncnc(N)c12 (single isomer, unassigned): ≤ 0.1 µM
- Cc1nn(C(C)c2cc(Cl)c(C#N)c3c2OC(C)CN(C2CN(CCO)C2)C3)c2ncnc(N)c12 (single isomer, unassigned) [Example 103]: ≤ 0.1 µM
- CC(=O)NC1CC(N2Cc3c(C#N)c(Cl)cc(C(C)n4nc(C)c5c(N)ncnc54)c3OC(C)C2)C1 (single isomer, unassigned): ≤ 0.1 µM

The reported numbers originate from patent US9944646B2.
